Method Description: circular dichroism
Experimental Context: 10 mM Na phosphate; pH 7.4; 25 °C; 100 uM
Bridge positions count the residues as written; N and C are the ends. Peptide text beside a SMILES is read from it.
Property Name: helicity (%)
Write the value in % as a bare number.

[[record]]
compound = "CC(=O)N[C@@H](CC(=O)O)C(=O)N[C@@H](CCCCN)C(=O)N[C@H]1CC(=O)NCCCC[C@@H](C(=O)N[C@@H](CCC(=O)O)C(=O)N[C@@H](CC(=O)O)C(N)=O)NC(=O)[C@H](CCC(=O)O)NC(=O)[C@H](Cc2c[nH]cn2)NC(=O)[C@H](CC(N)=O)NC1=O (Ac-DKDNHEKED-NH2; lactam 3-7)"
value_observed = 37.2


Then this compound:
Inquiry: Read the entry CC(=O)N1CCC[C@H]1C(=O)N[C@@H](CC(=O)O)C(=O)N[C@@H](CCCCN)C(=O)N[C@H]1CCCCNC(=O)C[C@@H](C(=O)N[C@@H](CCC(=O)O)C(=O)N[C@@H](CC(=O)O)C(N)=O)NC(=O)[C@H](CCC(=O)O)NC(=O)[C@H](Cc2c[nH]cn2)NC(=O)[C@H](CC(N)=O)NC1=O (Ac-PDKKNHEDED-NH2; lactam 4-8) and write its reported helicity.
Reply text: 89.7
